Tested on: total transit
protocol: total transit test in rats
Assay type: in vivo
condition: Rattus norvegicus, po; rats; dose 1 mg/kg p.o., second administration at same dose after 7 hours; 24 hours; read-out: % animals having completely evacuated the balls after 24 hours
assay.endpoint: responders at 1 mg/kg (%)
I only need the number, in %, no unit after it.

Answered cases to consult:
COc1cc(N)c(Cl)cc1C(=O)NC1CN2CCC1CC2 (stereo not shown) : 64
COc1cc(NC(C)=O)c(Cl)cc1C(=O)N(C)C1CN2CCC1CC2 (stereo not shown) : 38
COc1ccc(F)cc1C(=O)NC1CN2CCC1CC2 (stereo not shown) : 57
COc1cc(N)c(Cl)cc1C(=S)N(C)C1CN2CCC1CC2 (stereo not shown) : 44
O=C(NC1CN2CCC1CC2)c1cccc(Cl)c1 (stereo not shown) : 50

Enquiry: Entry under review: COc1cc(N)c(Cl)cc1C(=S)NC1CN2CCC1CC2 (stereo not shown) . Reported responders at 1 mg/kg?
Return: 63

Enquiry: How about this compound: COc1cc(N)c(Cl)cc1C(=O)N(C)C1CN2CCC1CC2 (stereo not shown)
Return: 38
